Conditions: in acetone, 323.15 K
Property: solubility (mole fraction)
I only need the number, thanks.

Name the reported solubility (mole fraction) value associated with the compound `CC(=O)N[C@@H](C)C(=O)O`
0.103

---

Settings: in 2-butanone, 308.15 K
Property: solubility (mole fraction)
I only need the number, thanks.

Name the reported solubility (mole fraction) value associated with the molecule `CC(=O)N[C@@H](C)C(=O)O`
0.026

---

Conditions: in ethyl acetate, 293.15 K
Property: solubility (mole fraction)
I only need the number, thanks.

Name the reported solubility (mole fraction) value associated with the compound `CC(=O)N[C@@H](C)C(=O)O`
0.0062

---

Conditions: in ethyl acetate, 313.15 K
Property: solubility (mole fraction)
I only need the number, thanks.

Name the reported solubility (mole fraction) value associated with the compound `CC(=O)N[C@@H](C)C(=O)O`
0.0112

---

Conditions: in ethanol, 288.15 K
Property: solubility (mole fraction)
I only need the number, thanks.

Name the reported solubility (mole fraction) value associated with the molecule `CC(=O)N[C@@H](C)C(=O)O`
0.127

---

Conditions: in acetonitrile, 283.15 K
Property: solubility (mole fraction)
I only need the number, thanks.

Name the reported solubility (mole fraction) value associated with the molecule `CC(=O)N[C@@H](C)C(=O)O`
0.00594

---

Details: in n-propyl acetate, 288.15 K
Property: solubility (mole fraction)
I only need the number, thanks.

Name the reported solubility (mole fraction) value associated with the compound `CC(=O)N[C@@H](C)C(=O)O`
0.00352

---

Conditions: in n-propyl acetate, 293.15 K
Property: solubility (mole fraction)
I only need the number, thanks.

Name the reported solubility (mole fraction) value associated with the compound `CC(=O)N[C@@H](C)C(=O)O`
0.00421

---

Conditions: in acetonitrile, 288.15 K
Property: solubility (mole fraction)

Name the reported solubility (mole fraction) value associated with the molecule `CC(=O)N[C@@H](C)C(=O)O`
0.00727

---

Conditions: in acetonitrile, 323.15 K
Property: solubility (mole fraction)
I only need the number, thanks.

Name the reported solubility (mole fraction) value associated with the molecule `CC(=O)N[C@@H](C)C(=O)O`
0.0385

---

Settings: in sec-butanol, 308.15 K
Property: solubility (mole fraction)

Name the reported solubility (mole fraction) value associated with the molecule `CC(=O)N[C@@H](C)C(=O)O`
0.129

---

Settings: in methyl acetate, 308.15 K
Property: solubility (mole fraction)
I only need the number, thanks.

Name the reported solubility (mole fraction) value associated with the molecule `CC(=O)N[C@@H](C)C(=O)O`
0.0135

---

Conditions: in 2-butanone, 293.15 K
Property: solubility (mole fraction)
I only need the number, thanks.

Name the reported solubility (mole fraction) value associated with the compound `CC(=O)N[C@@H](C)C(=O)O`
0.0161

---

Conditions: in isopentanol, 313.15 K
Property: solubility (mole fraction)
I only need the number, thanks.

Name the reported solubility (mole fraction) value associated with the compound `CC(=O)N[C@@H](C)C(=O)O`
0.108

---

Conditions: in isobutanol, 318.15 K
Property: solubility (mole fraction)
I only need the number, thanks.

Name the reported solubility (mole fraction) value associated with the compound `CC(=O)N[C@@H](C)C(=O)O`
0.132

---

Conditions: in dimethyl carbonate, 313.15 K
Property: solubility (mole fraction)
I only need the number, thanks.

Name the reported solubility (mole fraction) value associated with the compound `CC(=O)N[C@@H](C)C(=O)O`
0.00668
